# Test target: BmEcR (GAL4-EcR DEF with VP16-RXR-USP chimera) (Bombyx mori, UniProt P49881)
# Sequence (P49881 other isoform, or with tags, fused parts or gaps, change not shown): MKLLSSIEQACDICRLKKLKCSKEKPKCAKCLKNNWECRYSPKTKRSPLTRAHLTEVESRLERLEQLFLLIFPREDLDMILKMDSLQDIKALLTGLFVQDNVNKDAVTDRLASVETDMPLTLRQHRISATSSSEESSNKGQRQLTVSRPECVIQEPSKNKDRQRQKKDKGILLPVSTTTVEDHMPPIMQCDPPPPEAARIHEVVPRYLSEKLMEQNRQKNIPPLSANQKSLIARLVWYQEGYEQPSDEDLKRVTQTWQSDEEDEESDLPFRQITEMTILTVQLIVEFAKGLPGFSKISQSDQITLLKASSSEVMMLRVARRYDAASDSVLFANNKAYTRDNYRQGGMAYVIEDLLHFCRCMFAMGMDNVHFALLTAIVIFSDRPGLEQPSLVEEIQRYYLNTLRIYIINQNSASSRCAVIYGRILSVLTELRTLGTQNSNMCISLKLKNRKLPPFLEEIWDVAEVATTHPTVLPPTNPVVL
# Run description: Two-hybrid gene switch assay, luciferase reporter, BmEcR, mouse NIH3T3 cells
# Type: cell-based
# Settings: EC50, FIG. 15; BmEcR, GAL4-EcR (DEF) / VP16-RXR-USP chimera
pEC50: −log10 of the molar value.
Task for the reader: assign each of the following molecules its reported pEC50.

CC(C)(O)CC[C@@H](O)[C@](C)(O)[C@H]1CC[C@@]2(O)C3=CC(=O)[C@]4(O)C[C@@H](O)[C@@H](O)C[C@]4(C)[C@H]3CC[C@]12C [polypodine B] :: ~5.05

Respond only with pEC50 recorded for C[C@H]([C@H](O)CCC(C)(C)O)[C@H]1CC[C@@]2(O)C3=CC(=O)[C@@H]4C[C@@H](O)[C@@H](O)C[C@]4(C)[C@H]3CC[C@]12C [ecdysone]
< 4.48
